Origin of measurements: patent US11484561B2

# Test system: N-acetyl-β-D-gluc (Bovine kidney)
# measurement_notes: Glycosidase assay, N-acetyl-β-D-gluc (Bovine kidney)
# Format: biochemical
# condition_context: Table 16; % inhibition; concentration not given
# Description: The assays used p-nitrophenyl-substrates and commercial enzymes purchased from Sigma-Aldrich. Enzymes were assayed at 27° C. in 0.1M citric acid/0.2M disodium hydrogen phosphate buffers at the optimum pH for the enzyme. […] The reactions were stopped by addition of 70 μl 0.4M glycine (pH 10.4) during the exponential phase of the reaction, which had been determined at the beginning using uninhibited assays in which water replaced mulberry fractions. […] Results are expressed as % inhibition. […]
Field: N-acetyl-β-D-gluc (Bovine kidney). Provide a value for each of the molecules that follow.
# number only, unit % dropped from output

Kindly note the recorded N-acetyl-β-D-gluc (Bovine kidney) for O=C(O)CN1C[C@H](O)[C@@H](O)[C@H](O)[C@H]1CO , which is 84

Kindly note the recorded N-acetyl-β-D-gluc (Bovine kidney) for O=C(O)CN1C[C@@H](O)[C@H](O)[C@H]1CO , which is 82

Kindly note the recorded N-acetyl-β-D-gluc (Bovine kidney) for OC[C@H]1NC[C@H](O)[C@@H](O)[C@@H]1O , which is 0

Kindly note the recorded N-acetyl-β-D-gluc (Bovine kidney) for O=C(O)CCN1C[C@H](O)[C@@H](O)[C@H](O)[C@H]1CO , which is 86

Kindly note the recorded N-acetyl-β-D-gluc (Bovine kidney) for OC[C@H]1NC[C@@H](O)[C@@H]1O , which is −8

---

Field: Naringinase (P. decumbens). Provide a value for each of the molecules that follow.
# Test system: naringinase (P. decumbens)
# measurement_notes: Glycosidase assay, naringinase (P. decumbens)
# Format: biochemical
# condition_context: Table 16; % inhibition; concentration not given
Give the number first and the unit second.

The reported Naringinase (P. decumbens) value, naringinase (P. decumbens), for O=C(O)CN1C[C@H](O)[C@@H](O)[C@H](O)[C@H]1CO reads 0%

The reported Naringinase (P. decumbens) value, naringinase (P. decumbens), for OC[C@H]1NC[C@@H](O)[C@@H]1O reads 3%

The reported Naringinase (P. decumbens) value, naringinase (P. decumbens), for O=C(O)CN1C[C@@H](O)[C@H](O)[C@H]1CO reads 0%

The reported Naringinase (P. decumbens) value, naringinase (P. decumbens), for OC[C@H]1NC[C@H](O)[C@@H](O)[C@@H]1O reads 21%

The reported Naringinase (P. decumbens) value, naringinase (P. decumbens), for O=C(O)CCN1C[C@H](O)[C@@H](O)[C@H](O)[C@H]1CO reads 4%

---

Field: β-D-galactosidase (Bovine). Provide a value for each of the compounds that follow.
# target_under_test: β-D-galactosidase (bovine) (Bos taurus, UniProt Q58D55)
# Construct: purchased Sigma-Aldrich
# Sequence (Q58D55 28-653): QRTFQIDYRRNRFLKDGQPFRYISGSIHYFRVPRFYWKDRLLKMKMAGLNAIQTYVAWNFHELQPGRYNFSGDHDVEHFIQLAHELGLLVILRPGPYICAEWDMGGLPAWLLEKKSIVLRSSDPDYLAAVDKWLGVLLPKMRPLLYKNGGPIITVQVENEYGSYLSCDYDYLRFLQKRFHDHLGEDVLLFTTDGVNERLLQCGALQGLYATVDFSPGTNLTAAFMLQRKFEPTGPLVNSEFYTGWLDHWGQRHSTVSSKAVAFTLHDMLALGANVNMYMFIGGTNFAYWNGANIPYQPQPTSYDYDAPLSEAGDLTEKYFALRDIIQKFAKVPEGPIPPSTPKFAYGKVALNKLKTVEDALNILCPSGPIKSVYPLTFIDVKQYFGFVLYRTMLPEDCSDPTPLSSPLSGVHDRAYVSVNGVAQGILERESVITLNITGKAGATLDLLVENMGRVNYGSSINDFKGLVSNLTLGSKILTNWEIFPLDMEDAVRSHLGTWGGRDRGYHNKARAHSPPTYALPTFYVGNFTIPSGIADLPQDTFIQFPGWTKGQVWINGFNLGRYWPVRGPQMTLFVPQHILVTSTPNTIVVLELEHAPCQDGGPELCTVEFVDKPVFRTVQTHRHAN
# measurement_notes: Glycosidase assay, β-D-galactosidase (bovine)
# Type: biochemical
# condition_context: Table 16; % inhibition; concentration not given
# number only, unit % dropped from output

Kindly note the recorded β-D-galactosidase (Bovine) for O=C(O)CCN1C[C@H](O)[C@@H](O)[C@H](O)[C@H]1CO [DNJ-N-propanoic, DNJ-N-propanoic acid] , which is 12

Kindly note the recorded β-D-galactosidase (Bovine) for OC[C@H]1NC[C@@H](O)[C@@H]1O [DAB, 1,4-dideoxy-1,4-imino-D-arabinitol] , which is 100

Kindly note the recorded β-D-galactosidase (Bovine) for O=C(O)CN1C[C@@H](O)[C@H](O)[C@H]1CO [DAB-N-ethanoic, DAB-N-ethanoic acid] , which is 0

Kindly note the recorded β-D-galactosidase (Bovine) for O=C(O)CN1C[C@H](O)[C@@H](O)[C@H](O)[C@H]1CO [DNJ-N-ethanoic, DNJ-ethanoic acid] , which is 2

Kindly note the recorded β-D-galactosidase (Bovine) for OC[C@H]1NC[C@H](O)[C@@H](O)[C@@H]1O [DNJ, 1 deoxynojirmycin] , which is 0

---

# target_under_test: α-D-glucosidase (Yeast) (Saccharomyces cerevisiae, UniProt P53341)
# Construct: purchased Sigma-Aldrich
# Sequence (P53341 whole entry): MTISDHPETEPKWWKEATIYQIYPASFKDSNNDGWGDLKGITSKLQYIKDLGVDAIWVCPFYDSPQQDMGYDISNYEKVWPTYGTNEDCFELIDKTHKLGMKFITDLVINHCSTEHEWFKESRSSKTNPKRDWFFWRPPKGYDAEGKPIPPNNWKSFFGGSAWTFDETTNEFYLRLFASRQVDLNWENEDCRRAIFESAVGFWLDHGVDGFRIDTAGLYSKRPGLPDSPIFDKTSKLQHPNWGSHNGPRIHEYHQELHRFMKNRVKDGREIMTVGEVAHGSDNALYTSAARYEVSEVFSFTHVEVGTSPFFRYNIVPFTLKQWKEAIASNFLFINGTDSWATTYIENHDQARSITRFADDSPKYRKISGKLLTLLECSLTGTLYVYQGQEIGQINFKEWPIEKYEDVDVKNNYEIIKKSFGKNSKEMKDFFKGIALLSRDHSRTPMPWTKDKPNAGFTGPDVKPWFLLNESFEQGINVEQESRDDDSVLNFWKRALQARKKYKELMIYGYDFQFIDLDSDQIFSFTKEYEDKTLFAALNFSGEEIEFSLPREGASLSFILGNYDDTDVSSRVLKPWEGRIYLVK
# measurement_notes: Glycosidase assay, α-D-glucosidase (Yeast)
# Format: biochemical
# condition_context: Table 16; % inhibition; concentration not given
assay_readout: α-D-glucosidase (Yeast) (%)
# number only, unit % dropped from output

Kindly note the recorded α-D-glucosidase (Yeast) for OC[C@H]1NC[C@H](O)[C@@H](O)[C@@H]1O [DNJ, 1 deoxynojirmycin] , which is 36

Kindly note the recorded α-D-glucosidase (Yeast) for O=C(O)CCN1C[C@H](O)[C@@H](O)[C@H](O)[C@H]1CO [DNJ-N-propanoic, DNJ-N-propanoic acid] , which is 0.0

Kindly note the recorded α-D-glucosidase (Yeast) for OC[C@H]1NC[C@@H](O)[C@@H]1O [DAB, 1,4-dideoxy-1,4-imino-D-arabinitol] , which is 100

Kindly note the recorded α-D-glucosidase (Yeast) for O=C(O)CN1C[C@@H](O)[C@H](O)[C@H]1CO [DAB-N-ethanoic, DAB-N-ethanoic acid] , which is 10.7

Kindly note the recorded α-D-glucosidase (Yeast) for O=C(O)CN1C[C@H](O)[C@@H](O)[C@H](O)[C@H]1CO [DNJ-N-ethanoic, DNJ-ethanoic acid] , which is 2.5
